Target: AMPK alpha1/alpha2 (Homo sapiens) (UniProt P54646+Q13131)
Sequence (P54646 whole entry, looked up): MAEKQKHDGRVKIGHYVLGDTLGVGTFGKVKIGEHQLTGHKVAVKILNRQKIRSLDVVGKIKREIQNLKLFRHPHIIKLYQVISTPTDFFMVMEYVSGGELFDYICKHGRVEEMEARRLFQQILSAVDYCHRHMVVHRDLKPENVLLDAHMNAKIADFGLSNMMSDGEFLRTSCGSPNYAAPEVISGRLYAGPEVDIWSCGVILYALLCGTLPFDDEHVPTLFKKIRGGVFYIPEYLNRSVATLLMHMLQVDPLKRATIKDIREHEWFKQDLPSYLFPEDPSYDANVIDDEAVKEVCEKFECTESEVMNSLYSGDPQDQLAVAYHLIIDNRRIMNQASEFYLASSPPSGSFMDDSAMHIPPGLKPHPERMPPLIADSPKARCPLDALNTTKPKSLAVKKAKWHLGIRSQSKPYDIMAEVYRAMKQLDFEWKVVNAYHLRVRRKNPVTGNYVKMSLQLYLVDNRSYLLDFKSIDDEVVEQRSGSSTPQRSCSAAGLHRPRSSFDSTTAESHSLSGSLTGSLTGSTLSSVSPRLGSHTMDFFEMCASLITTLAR
Sequence (Q13131 whole entry, looked up): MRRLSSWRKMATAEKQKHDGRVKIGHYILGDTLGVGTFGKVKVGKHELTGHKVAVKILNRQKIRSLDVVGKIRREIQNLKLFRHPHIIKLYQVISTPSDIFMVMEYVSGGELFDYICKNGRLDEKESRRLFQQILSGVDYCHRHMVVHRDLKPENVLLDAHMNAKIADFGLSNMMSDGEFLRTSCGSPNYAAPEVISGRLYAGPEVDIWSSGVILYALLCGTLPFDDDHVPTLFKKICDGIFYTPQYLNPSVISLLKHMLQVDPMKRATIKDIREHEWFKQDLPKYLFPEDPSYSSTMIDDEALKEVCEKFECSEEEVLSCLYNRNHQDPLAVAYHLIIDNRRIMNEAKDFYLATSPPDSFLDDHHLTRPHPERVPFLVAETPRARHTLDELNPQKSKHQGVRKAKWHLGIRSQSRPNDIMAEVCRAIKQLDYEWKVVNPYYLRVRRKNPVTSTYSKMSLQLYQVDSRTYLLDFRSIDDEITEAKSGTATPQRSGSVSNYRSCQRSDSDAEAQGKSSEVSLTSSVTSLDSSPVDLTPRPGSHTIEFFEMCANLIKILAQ
Assay: Inhibition of AMPKalpha1/AMPKalpha2 in human PC3 cell lysates at 10 uM using desthiobiotin-tagged ATP probe AX9989 followed by trypsinization by LC/MS analysis
Format: protein-complex assay
Conditions: PC-3
# inhibition per record follows

Some molecules with known inhibition results, for comparison:
[
  {
    "chemical smiles": "C[C@@H](NC(=O)c1ccc2nc(N[C@H]3CC[C@H](O)CC3)c3nccn3c2c1)c1ccccc1",
    "inhibition": "43.2%"
  },
  {
    "chemical smiles": "O=C(N[C@H](CO)c1ccccc1)c1ccc2nc(N[C@H]3CC[C@H](O)CC3)c3nccn3c2c1",
    "inhibition": "40.1%"
  },
  {
    "chemical smiles": "CCC[C@@H](NC(=O)c1ccc2nc(N[C@H]3CC[C@H](O)CC3)c3nccn3c2c1)c1ccccc1",
    "inhibition": "< 35%"
  },
  {
    "chemical smiles": "O=C(NC1(c2ccccc2)CCC1)c1ccc2nc(N[C@H]3CC[C@H](O)CC3)c3nccn3c2c1",
    "inhibition": "< 35%"
  }
]

Query: Requested field: inhibition. Item: "O=C(O)c1ccc2nc(N[C@H]3CC[C@H](O)CC3)c3nccn3c2c1"
Response: < 35%

Query: Similarly, "O=C(NC1(c2ccccc2)CC1)c1ccc2nc(N[C@H]3CC[C@H](O)CC3)c3nccn3c2c1" ?
Response: < 35%

Query: Similarly, "NC(=O)c1ccc2nc(N[C@H]3CC[C@H](O)CC3)c3nccn3c2c1" ?
Response: < 35%

Query: Similarly, "O=C(NC1(c2ccc(F)cc2)CC1)c1ccc2nc(N[C@H]3CC[C@H](O)CC3)c3nccn3c2c1" ?
Response: < 35%

Query: Similarly, "C[C@H](NC(=O)c1ccc2nc(N[C@H]3CC[C@H](O)CC3)c3nccn3c2c1)c1ccccc1" ?
Response: < 35%

Query: Similarly, "O=C(NC1(Cc2ccc(F)cc2)CC1)c1ccc2nc(N[C@H]3CC[C@H](O)CC3)c3nccn3c2c1" ?
Response: < 35%

Query: Similarly, "CC(C)(NC(=O)c1ccc2nc(N[C@H]3CC[C@H](O)CC3)c3nccn3c2c1)c1ccccc1" ?
Response: < 35%

Query: Similarly, "CC[C@@H](NC(=O)c1ccc2nc(N[C@H]3CC[C@H](O)CC3)c3nccn3c2c1)c1ccccc1" ?
Response: < 35%
